A collection of compounds and their measured zone of inhibition at 5 µg/disc
Test system: Salmonella typhi
assay_text: Antibacterial activity against Salmonella typhi at 5 ug after 24 hrs by disc diffusion assay
Format: functional, Salmonella enterica subsp. enterica serovar Typhi
measurement_context: Salmonella enterica, read-out: IZ
assay_endpoint: zone of inhibition at 5 µg/disc (mm)

INSERT INTO results (compound, readout_units, experimental_value) VALUES
  ('CCC1[C@@H]2Nc3ccc(Cl)cc3C(c3ccccc3)[C@H]2CN1OS(=O)(=O)c1ccc(C)cc1 (some centres undefined)', 'mm', 10),
  ('CCC1[C@H]2c3c(n(C)c4ccccc4c3=O)OC(C)(C)[C@@H]2CN1OS(=O)(=O)c1ccc(C)cc1 (mixture of isomers)', 'mm', 10),
  ('CCC1[C@H]2c3c(n(C)c4ccccc4c3=O)OC(c3ccccc3)[C@@H]2CN1OS(=O)(=O)c1ccc(C)cc1 (mixture of isomers)', 'mm', 10),
  ('CCC1[C@@H]2Nc3ccc(Br)cc3C(c3ccccc3)[C@H]2CN1OS(=O)(=O)c1ccc(C)cc1 (some centres undefined)', 'mm', 10),
  ('O=C(O)c1cn(C2CC2)c2cc(N3CCNCC3)c(F)cc2c1=O [CIPROFLOXACIN]', 'mm', 14),
  ('CCC1[C@@H]2c3c(c4ccccc4n(C)c3=O)OC(C)(C)[C@H]2CN1OS(=O)(=O)c1ccc(C)cc1 (mixture of isomers)', 'mm', 10),
  ('CCC1[C@@H]2Nc3ccccc3C(c3ccccc3)[C@H]2CN1OS(=O)(=O)c1ccc(C)cc1 (some centres undefined)', 'mm', 10),
  ('CCC1[C@@H]2Nc3ccc(Cl)cc3C(C)(C)[C@H]2CN1OS(=O)(=O)c1ccc(C)cc1 (some centres undefined)', 'mm', 10),
  ('CCC1[C@@H]2c3c(c4ccccc4n(C)c3=O)OC(c3ccccc3)[C@H]2CN1OS(=O)(=O)c1ccc(C)cc1 (mixture of isomers)', 'mm', 10);
